# credit: paper PMC9884143

test-system: SARS-CoV-2 Spike receptor-binding domain (RBD), Delta variant (SARS-CoV-2, Delta (B.1.617.2; L452R, …, strain)
measure: Kd (nM)

[[record]]
binder = "CoV2-YD-13 (VHH) VHH: QVQLVESGGGLVQAGGSLRLSCAASGFTFDDYAIGWFRQAPGKEREGVSCISSSGGFTNYADSVKGRFTISSDNAKNTVYLQMNSLKPEDTAVYYCAVVVNGYGLDEWAYDYWGQGTQVTVS"
measure = "Kd"
readout_unit = "nM"
value_observed = 45.4

[[record]]
binder = "CoV2-YD-35 (VHH) VHH: DVQLVESGGGLVQAGDSLRLSCTASGRTFTTNAMGWFRQAPGKEREFVAAISWSYGTTYYSDPVEGRFTISRSNAKNTVYLQMNSLKPDDTAVYYCTLRSRFNAAAWTTEAAFDYWGQGTQVTVS"
measure = "Kd"
readout_unit = "nM"
value_observed = 0.185

[[record]]
binder = "CoV2-YD-37 (VHH) VHH: DVQLVESGGGLVQAGDSLRLSCTASGRTFTTNAMGWFRQAPGKEREFVAAISWNYDTTYYSDPVEGRFTISRSNAKNTVYLQMNSLKPDDTAVYYCTLRSRFNAAAWTTEAAFDYWGQGTQVTVS"
measure = "Kd"
readout_unit = "nM"
value_observed = 2.4

[[record]]
binder = "CoV2-YD-36 (VHH) VHH: QVQLVESGGGLVQAGDSLRLSCTASGRTFTTNAMGWFRQAPGKEREFVAAITWSYGTTYYSDPVEGRFTISRSNAKNTVYLQMNSLKPDDTAVYYCTLRSRFNAAAWTTEAAFDYWGQGTQVTVS"
measure = "Kd"
readout_unit = "nM"
value_observed = 0.022

[[record]]
binder = "Rescue-3 (VHH) VHH: DVQLVESGGGLVQAGDSLRLSCTASGRTFTTNAMGWFRQAPGKEREFVAAISWNSGTTYYSDPVKGRFTISRDNAKNTVYLQMNSLKPEDTAVYYCFYERLAWDTSTYWGQGTQVTVS"
measure = "Kd"
readout_unit = "nM"
value_observed = 27.1

[[record]]
binder = "CoV2-YD-38 (VHH) VHH: DVQLVESGGGLVQAGDSLRLSCAASGRTFTTNAMGWFRQAPGKEREFVAAISWNSGTTYYSDPVKGRFTISRDNAKNTVYLQMNSLKPGDTAVYYCTLRSRFNAYAWTTENAFDYWGQGTQVTVS"
measure = "Kd"
readout_unit = "nM"
value_observed = 0.256

[[record]]
binder = "Rescue-2 (VHH) VHH: DVQLVESGGGLVQAGDSLRLSCTASGRTFTTNAMGWFRQAPGKEREFVAAISWNYDTTYYSDPVEGRFTISRDNAKNTVYLQMNSLKPEDTAVYYCFYERLAWDTSTYWGQGTQVTVS"
measure = "Kd"
readout_unit = "nM"
value_observed = 11.2

[[record]]
binder = "Rescue-1 (VHH) VHH: DVQLVESGGGLVQAGDSLRLSCTASGRTFTTNAMGWFRQAPGKEREFVAAITWSYGTTYYSDPVEGRFTISRDNAKNTVYLQMNSLKPEDTAVYYCFYERLAWDTSTYWGQGTQVTVS"
measure = "Kd"
readout_unit = "nM"
value_observed = 14.1

